B1: E3 ubiquitin-protein ligase Midline-1, residues 172 to 214; numbered along this chain, O15344 (parent)
chain: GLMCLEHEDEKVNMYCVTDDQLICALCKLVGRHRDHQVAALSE

Variants of: B1
Test: abundance fitness (aPCA) (normalised: wild type 0, dead -1); higher = more abundant; growth selection in yeast, the domain comes from the species named
Details: Homo sapiens
So basically every entry gets a class from its abundance fitness, ranges being low class (below -0.2), middle class (-0.2 to below 0.03), high class (0.03 or more)

Check out these entries, answers already filled in.
>  <Mutation name>
L22N

>  <Qualitative label>
high class

$$$$
>  <Mutation name>
D35A

>  <Qualitative label>
low class

$$$$
>  <Mutation name>
K28T

>  <Qualitative label>
high class

$$$$
>  <Mutation name>
C24L

>  <Qualitative label>
low class

$$$$
>  <Mutation name>
D35E

>  <Qualitative label>
high class

$$$$
>  <Mutation name>
G31I

>  <Qualitative label>
low class

$$$$

-- ask Into which category would you place "D20R" ?
-- reply middle class

-- ask And what about the variant "L2S" ?
-- reply high class

-- ask And what about the variant "L26D" ?
-- reply high class

-- ask And what about the variant "M3E" ?
-- reply low class

-- ask And what about the variant "M3Y" ?
-- reply low class

-- ask And what about the variant "D20N" ?
-- reply high class

-- ask And what about the variant "C24V" ?
-- reply low class

-- ask And what about the variant "K11S" ?
-- reply middle class

-- ask And what about the variant "Y15K" ?
-- reply high class

-- ask And what about the variant "G1Y" ?
-- reply middle class

Recorded values, source the Human Domainome abundance scans (Beltran et al. 2025).
